assay: yeast display, Sf9 membrane polyspecificity reagent, FACS + sequencing; frameworks hold sequencing errors
readout: polyreactivity (PSR sort gate)

Illustrative cases are given below, each with its answer.
1) QVQLVESGGGSLRLSCAASALTFGGYTMGWYRQAPGKERELVAAISSSDSTNYADSVKGRFTISRDNAKNTVYLQMNSLKPEDTAVYYCAADSGQWSRYSSFGDEGDSWGQGTEVTVSS low polyreactivity
2) QVQLVESWGALVQAGGSLRLSCAASRRTFALNAMGWYRQAPGKETELVAAITSSGGSSYYADSVKGRFTISRDIAKNSVYLLMNSLNPVDTAVYYCAADRHYGTEYAYDYWGEGTQVTVSS low polyreactivity
3) QVQLVESGGGLVQAGGSLRLSCAASGIIFYGNTLGWYRQAPGKERELVAGIDFSDDSTNYADSVKGRFTISRDNAKNSVYLLRNSLKPEDTAVYYCAADTRSPSAQEVDYWGQGTQVTVSS low polyreactivity
4) QVQLVESGGGLVQAGGSLRLSCAASGFTFSAYAMGWYRPAPGKERELVAAISWSGSRTYYADSVKGRFTISRDNAKNTVYLQMNSLKQEDTEVYYCAKEPYDTFGFYEYDYWGQGTQVTVSS low polyreactivity
5) QVQLVESGGGLVQEGGSLRLSCAASGSTFYPNAMGWYRQAPGKERELVAAISSSGGSTYYADSVKGRFTISRDNAKNTVYLQMNSLKPEDTAVYYCNKRWFRDYDYWGPGTQVTVSS high polyreactivity

Give me polyreactivity (PSR sort gate) for each of these sequences, listed below.
1. QVQLHESGGGLVQAGGSLRLSCAASGTITYAGPMGWYRQAPGKEREFVAGIGVGSNTNYADSVKGRYTIIRDNAINTVYLEKNSLKPEDTPVYYCAVGGYAPLGRPYWGQVTQVTVSS
2. QVQLVESGEGLVQAGGSLRLSCAASGRTFYANAMGWYRQAPGKERELVASITTSGGTYYADSVKGRFTISRDNAKNTVYLQMNSLKPEDTAVYYCAADVYRSIGYDYWGQGTQVTVSS
3. QVQLVESGGGLVQAGGSLRLSCAAYGRTFGRYAMGCYRPAPGKERELVAAITVGGGSKYYADSVKGRFTISRDNAKNTVYLQMNSLKPEDTAVYYCNALHTYTYRYDYYYWGQGTQVTVSS

["low polyreactivity", "low polyreactivity", "high polyreactivity"]

----------
experiment: yeast display, Sf9 membrane polyspecificity reagent, FACS + sequencing; frameworks hold sequencing errors
readout: polyreactivity (PSR sort gate)

Illustrative cases are given below, each with its answer.
1) QVQLVDSGGGLVQAGGRLRLSCAPSGSIIIDNAMGWYRQAPGKERELVAAISSSGGSTHYADSVKGRFTISRDNAKNTVYLQMNSLKPEDTAVYYCAAKRGWRGGYYWGQGTQVTVSS high polyreactivity
2) QVQLVESGGGLVQAGGSLRLSCAASGSIFSSNAMGWSRQAPGKERELVASIRRGGSTYYADSVKGRFTISRDNAKNTVYLQMNSLKPEDTAVYDCARRYVPWYATYDHWGQGTQVTVSS high polyreactivity
3) QVQLVESGGGLVQAGGSLRLSCAASGSIFWGYAMGWYRPAPGKERELVATIRNRGGSTYYADSVKGRFTISRDNAKNTVYLQMNSLKPEDTAVYYCAAVSYRQYYGWGNYWGQGTQVTVSS low polyreactivity
4) QVQLVESWGGLVQAGGSLRLSCAASGSTFYRYAMGWSRQAPGKERELVAAINTGGSTNYADSVKGRFTISRDNAKNTVYLQMNSLKPEDTAVYYCAARFQYYRKYDYWGQGTQVTVSS low polyreactivity
5) QVQLVESGGGLVQAGGSLRLSCAASGRTFGGYAMVWYRQAPGKERELVATITKNGGSTYYADSVKGRFTISRDNAKNTVYVQMNSLKPEVTAVYYCATGSRGYKASPQWRDYWGQGTQVTVSS high polyreactivity

Give me polyreactivity (PSR sort gate) for each of these sequences, listed below.
1. QVQLVESGGCLVQAGGSLRLSCAASGRIFTTNAMGWYRQAPGKERELVAAITYSGGTTYYADSVKGRFTISRDNAKKTVYLQMNSLKPEDTAVYYCAADVKFSTPYDYWGQGTQVTVSS
2. QVQLVESGGGLVQAGGSLRLSCAASGGIFRYYAMGWYRQAPGKERELVAAISRSTRTYYADSVKGRFTISRDNAKITVYLQMNSLKPEDTEVYYCAAKYVSRRYSRYNYWGQGTQVSVSS
3. QVQLVESGGGLVQAGGSLRLSCAASGRTCIDKAMGWYRQAPGKERELVAAITKGARTYYADSVKGRFTISRDNAKNTVYLQMISLKPEDTGVYYCASVSYTQSHAYWGTGYRYGYWGQGTQVTVSS

1. low polyreactivity
2. high polyreactivity
3. high polyreactivity

----------
experiment: yeast display, Sf9 membrane polyspecificity reagent, FACS + sequencing; frameworks hold sequencing errors
readout: polyreactivity (PSR sort gate)

Illustrative cases are given below, each with its answer.
1) QVQLVESGGGLVQAGGSLRLSCAASGSTLYTYAMGWYRQAPGKERELVAAISYTGGRTYYADSVKGRFTISRDNAKNTVYLQMNSLKPEDTAVYYCAARFKSVGYDYWGQGTQVTVSS high polyreactivity
2) QVQLVESGGGLVQAGASLRLSCAASGRTLGYYAMGWSRQEPGKERELVAAISRSGGSTYYADSVKGRFTISRDNAKNTVYLQINSLKPEDTAVYYCAATYGPSRYRYDYWGQGTQVTVSS high polyreactivity
3) QVQLVESGGGLVQAGGSLRLSCAASGFIFNSYAMGWYRQAPGKERELVAAISRRGSSTYYADSVKGRFTISRDNAKNTVYLQMNSLKPEDTAVYYCAKRDRSTSWYLRDYWGQGTQVTVSS high polyreactivity
4) QVQLVESGGGLVQAGGSLRLSCAASGRTFPIYAMGWYRQAPGKERELVATITWNDGNTYYADSVKGRFTISRDNAKNTVYLQMNSLKPEDTAVYYCAAKGGWPWHYHYQKNSEYDYWGQGTQVTVSS low polyreactivity
5) QVQLVESGGGLVQAGGSLRLSCAASGSTFYFNTMGWYRQAPGKERELVAAIRRSSGSTYYADSVKGRFTISRDNAKNTVYLQMNSLKPEDTAVYYCAADNAVTRYGRIDRDYWGQGTQVTVSS low polyreactivity

Give me polyreactivity (PSR sort gate) for each of these sequences, listed below.
1. QVQLVESGGGLVQAGGSLRLSCAASGGIFYRYAMGWYRQAPGKERELVAVISRSGSTYYADSVKGRFTISRDNAKNTVYLQMNSQKPEDTAVYYCNKYGQVPGYFSLDYWGQGTQVTVSS
2. QVQLVESGGGLDQAGGSLRLSCAASGRTFIGYAMGWYRQAPGKVRELVAAFNWSGARTYYADSVKGRFTISRDNAKNTVYLQMNSLKPEDTAVYYCAAVPVTSQTKYGYWGQGTQVTVSS
3. QVQLVESGGGLVQEGGSLRLSCAASGRIIPSYAMGWYRQAPGKERELVAAISYSGASTYYADSVKGRFTISRDNAKNTVYLLMNCLKPEDTAVYYCATDHDSVRVLVSSTSDYDYWGQGTQVTVSS

high polyreactivity
high polyreactivity
low polyreactivity

Give me polyreactivity (PSR sort gate) for each of these sequences, listed below.
1. QVQLVESGGGLVQAGGSLRLSCAASGFTFRYYAMGWYRQAPGKERELVATITGYGGSTYYADSVKGRFTISRDNAKNTVYLQMNSLKPEDTAVYYCNTVWYTDVRYTRFYYWGQGTQVTVSS
2. QVQLVESGGGLVQAGRSLRLSCAASGRTYGIYAMGWYRQAPGKERQLVAAITWSGDSTYYADSVKGRFTISRDNAKNTVYLQMNSLKPEDTAVYYCAADYVGVTSVRYDYWGQGTQVTVSS
3. QVQLVESGGGLVQAGGSLRLSCAPSGITLDSNAMGWYRQARGKERELVAAINWSTGSTYYADSVKGRFTISRDNAKNTVYLQMNSLKPEDTAVYYCAVDYRYGYFVYVHYEYWGQGTQETVSS

high polyreactivity
low polyreactivity
high polyreactivity

Give me polyreactivity (PSR sort gate) for each of these sequences, listed below.
1. QVQLVDSGGGLVQAGGSLRLSCAASGSIIGVNAMGWYRQAPGKERELVAAISWSGSSTRYADSVKGRFTISRDNAKNTVYLQMNSLKPEDTAVYYCAAEAQTKWWDYYYWGQGTQVTVSS
2. QVQLVESGGGLVQAGGSLRLSCAASGSIFQVNAMGWYRQAPGKERELVAANRSGGRTTYADSVKGRFTISRDNAKNTVYLQMISLKTEDTAVYYGAAPLYYKSWTYPRLRSGYWGQGTQVTVSS

["high polyreactivity", "high polyreactivity"]

----------
assay: yeast display, Sf9 membrane polyspecificity reagent, FACS + sequencing; frameworks hold sequencing errors
readout: polyreactivity (PSR sort gate)

1. QVQLVESGGGLVQAGGSLRLSCAASGNIFYNVMGWYRQAPGKVRELVAVISSGDSTYYADSVKGRFTISRDNAKNTVYLQMNSLIPEDTAVYYCNAQWITSAYLLYSYDYWWGYDYWGQGTQVTVSS high polyreactivity
2. QVQLVESGGGVVQAGGSLRLSCAGSGFTFPSYAMGWYRQAPGKERELVAAISVGGGSTYYADSVKGRFTISRDKAKNTVYLQMNSLKPEDTAVYYCNADYWYWVWLVGGNVDLDYWGQGTQVTVSS high polyreactivity
3. QVQLVESGGGLVQAGGSLRLSCAASGSTFAWYAMGWYRTAPGKERELVAAISRTGRTYYADSVKGRFTMSRDNAKNTVYLQMNSLKPEDTAVYYCAARIERFYRDQRYDYWGQGTQVTVSS high polyreactivity
